Reference source for all entries: PubChem BioAssay (NCI)

Here, each record is paired with measured TGI data.
test system: MOLT-4 leukemia; assay: NCI tumour cell line growth inhibition, 48 h

molecule	TGI
O=c1[nH]c2cc([N+](=O)[O-])c(N(CCO)CCO)c([N+](=O)[O-])c2[nH]1	91.7 µM
O=c1cc(-c2ccc[nH]2)[nH]c2cc3c(cc12)OCO3	> 100 µM
Cn1c2cc(Cl)ccc2c2ccc3c(c21)C(=O)C=CC3=O	10.3 µM
CCNC(=O)CCCCC(=O)c1c(C)[nH]c(/C=C2\N=C(c3ccc[nH]3)C=C2OC)c1C	> 100 µM
CC(=O)O[C@@H]1CC2[C@@H](CCC3Cc4nc5c(nc4C[C@@]32C)CC2CC[C@@H]3C(CC[C@@]4(C)C3CC[C@@H]4C(C)CCCC(C)C)[C@@]2(C)C5)C2C[C@@H]3OC4(CCC(C)CO4)C(C)[C@@H]3[C@]21C (stereo partly drawn)	> 100 µM
CCOC(=O)c1cn2ncnc(Oc3ccc(NC(=O)NCCN(CC)CC)c(Cl)c3)c2c1C	5.67 µM
CC1(C)C(C(=O)OC(C#N)c2cccc(OCC(=O)OCc3ccccc3)c2)C1(C)C (stereo not drawn)	62.7 µM
O=S(=O)(Nc1nc(-c2cc(O)c(O)c(O)c2)cs1)c1ccc(Cl)cc1Cl	52.7 µM
Cn1c(=O)c2[nH]cnc2n(CC(=O)O)c1=O	> 100 µM
COc1cccc2cc(N(C)c3nc(C)nc4ccsc34)ccc12	29.7 µM
CCOC(=O)c1ccc2c(=O)n3c(C(=O)OCC)ccc3c(=O)n12	> 100 µM
CN(C)S(=O)(=O)c1cccc(-c2nc3sc4c(c3c(=O)[nH]2)CCCC4)c1	> 100 µM
O=C(O)CCc1nc(-c2ccccc2)c(-c2ccccc2)o1	> 100 µM
NC(=O)N/N=C1/CCCC/C1=C\c1ccccc1	> 100 µM
CN1CCN(c2ccc3nc(-c4ccc5nc(-c6ccc(N(C)CCCl)cc6)[nH]c5c4)[nH]c3c2)CC1	0.357 µM
CCOC(=O)c1[nH]n(-c2ccccc2)c(=O)c1C=NC(=S)C(N)=S	> 100 µM
O=C(Cc1nc2ccccc2s1)C(=O)Nc1ccc(Cl)cc1Cl	> 100 µM
O=C(Nc1ccc([N+](=O)[O-])cc1)c1cc2ccccc2cc1O	> 21.1 µM
